Hello, the source for this data is PubChem BioAssay AID1963437, in case you need it.

test system: OVCAR-8 complex spheroid, growth inhibition; experiment: Anticancer human tumor OVCAR-8 cell line growth inhibition [Asc]; conditions: curve of first compound; second compound 3.16 µM;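 further: spheroids exposed to agents for 7 days before readout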
Property: IC50; scope: individual molecules

These solved cases illustrate the format of a correct answer.
O=C(c1ccc(F)c(F)c1Nc1ccc(I)cc1F)N1CC(O)([C@@H]2CCCCN2)C1 + Cc1c(S(C)(=O)=O)c(-c2cc(F)cc(N3CCN(c4ccc(NS(=O)(=O)c5ccc(NC(CCN6CCC(C(=O)OCCCP(=O)(O)O)CC6)CSc6ccccc6)c(S(=O)(=O)C(F)(F)F)c5)cc4)CC3)c2)c(-c2ccc(Cl)cc2)n1C(C)C; > 1000 nM
NC1CCC(NC2CC2c2ccccc2)CC1 (stereo unspecified) + Cc1c(S(C)(=O)=O)c(-c2cc(F)cc(N3CCN(c4ccc(NS(=O)(=O)c5ccc(NC(CCN6CCC(C(=O)OCCCP(=O)(O)O)CC6)CSc6ccccc6)c(S(=O)(=O)C(F)(F)F)c5)cc4)CC3)c2)c(-c2ccc(Cl)cc2)n1C(C)C; > 100 nM
CNC(C)C(=O)NC1CN(S(=O)(=O)c2cccc(S(=O)(=O)N3CCC4CCC(C(=O)NC(c5ccccc5)c5ccccc5)N4C(=O)C(NC(=O)C(C)NC)C3)c2)CCC2CCC(C(=O)NC(c3ccccc3)c3ccccc3)N2C1=O (stereo unspecified) + Cc1c(S(C)(=O)=O)c(-c2cc(F)cc(N3CCN(c4ccc(NS(=O)(=O)c5ccc(NC(CCN6CCC(C(=O)OCCCP(=O)(O)O)CC6)CSc6ccccc6)c(S(=O)(=O)C(F)(F)F)c5)cc4)CC3)c2)c(-c2ccc(Cl)cc2)n1C(C)C; > 1000 nM

Could you share which IC50 value was measured for C#Cc1c(F)ccc2cc(O)cc(-c3ncc4c(N5CC6CCC(C5)N6)nc(OCC56CCCN5CC(F)C6)nc4c3F)c12 (stereo unspecified) + Cc1c(S(C)(=O)=O)c(-c2cc(F)cc(N3CCN(c4ccc(NS(=O)(=O)c5ccc(NC(CCN6CCC(C(=O)OCCCP(=O)(O)O)CC6)CSc6ccccc6)c(S(=O)(=O)C(F)(F)F)c5)cc4)CC3)c2)c(-c2ccc(Cl)cc2)n1C(C)C ? > 10000 nM

Also O=C(c1cc(Cc2n[nH]c(=O)c3ccccc23)ccc1F)N1CCN(C(=O)C2CC2)CC1 + Cc1c(S(C)(=O)=O)c(-c2cc(F)cc(N3CCN(c4ccc(NS(=O)(=O)c5ccc(NC(CCN6CCC(C(=O)OCCCP(=O)(O)O)CC6)CSc6ccccc6)c(S(=O)(=O)C(F)(F)F)c5)cc4)CC3)c2)c(-c2ccc(Cl)cc2)n1C(C)C ? > 10000 nM

Check COc1c(OCCCN2CCOCC2)ccc2c3n(c(=NC(=O)c4cnc(N)nc4)nc12)CCN3 + Cc1c(S(C)(=O)=O)c(-c2cc(F)cc(N3CCN(c4ccc(NS(=O)(=O)c5ccc(NC(CCN6CCC(C(=O)OCCCP(=O)(O)O)CC6)CSc6ccccc6)c(S(=O)(=O)C(F)(F)F)c5)cc4)CC3)c2)c(-c2ccc(Cl)cc2)n1C(C)C too. > 1000 nM

====

Tested on: OVCAR-8 complex spheroid, growth inhibition
Test: Anticancer human tumor OVCAR-8 cell line growth inhibition [Asc];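 further: spheroids exposed to agents for 7 days before readout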;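 on viability, T/C: percent viability relative to DMSO vehicle wells taken as 100%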
Settings: second compound 3 µM; first compound 0.0316 µM; stronger effect = lower value
Description: Multicellular complex tumor spheroid response to apoptosis pathway targeting inhibitors Alrizomadlin, Pelcitoclax, and Dasminapant in combination with a variety of drugs and investigational agents in selected tumor cell lines […] Compounds. […] If the clinical Cmax for an agent had not been determined, the highest concentration tested was 10 microM. […]
Catalogue of viability, T/C readings, one per entry.
Expressed in %, but write only the number.

Look over these answered cases.
O=C(c1ccc(F)c(F)c1Nc1ccc(I)cc1F)N1CC(O)([C@@H]2CCCCN2)C1 + CCN1C(C(=O)NC23CCC(C(=O)O)(CC2)CC3)C(c2cccc(Cl)c2F)C2(C(=O)Nc3cc(Cl)ccc32)C12CCCCC2; 183
O=C(c1cc(Cc2n[nH]c(=O)c3ccccc23)ccc1F)N1CCN(C(=O)C2CC2)CC1 + CCN1C(C(=O)NC23CCC(C(=O)O)(CC2)CC3)C(c2cccc(Cl)c2F)C2(C(=O)Nc3cc(Cl)ccc32)C12CCCCC2; 115
CNC(C)C(=O)NC1CN(S(=O)(=O)c2cccc(S(=O)(=O)N3CCC4CCC(C(=O)NC(c5ccccc5)c5ccccc5)N4C(=O)C(NC(=O)C(C)NC)C3)c2)CCC2CCC(C(=O)NC(c3ccccc3)c3ccccc3)N2C1=O (centres undefined) + CCN1C(C(=O)NC23CCC(C(=O)O)(CC2)CC3)C(c2cccc(Cl)c2F)C2(C(=O)Nc3cc(Cl)ccc32)C12CCCCC2; 115

Consider the record given below.
Lab note: need viability, T/C with OVCAR-8 complex spheroid, growth inhibition for entry CCN1CCN(Cc2ccc(Nc3ncc(F)c(-c4cc(F)c5nc(C)n(C(C)C)c5c4)n3)nc2)CC1 + CCN1C(C(=O)NC23CCC(C(=O)O)(CC2)CC3)C(c2cccc(Cl)c2F)C2(C(=O)Nc3cc(Cl)ccc32)C12CCCCC2 , please look it up. 117
